# credit: PubChem BioAssay (NCI)

# Tested on: RXF 393 renal
# protocol-details: NCI-60 one-dose screen, 48 h (100 = growth as untreated, 0 = no growth, -100 = all killed)
# conditions-used: 10 µM unless noted
Compounds without any hit were thinned out: in the full panel of roughly 83,000, 20% have a hit.
recorded-metric: growth (%)
Field format: number, assumed %, no unit text.

In: Send back RXF 393 renal growth of Cc1cc(C(=O)Nc2ccc3cc(CN4CCOCC4)ccc3n2)c(C)n1-c1ccccc1 only.
Out: 96.3

In: Send back RXF 393 renal growth of CCCCCCCSc1ncnc2[nH]ncc12 only.
Out: 61.2

In: Send back RXF 393 renal growth of Nc1nc(NC2CC2)c2ncn(C3C=CC(CO)C3)c2n1 (centres undefined) only.
Out: -4.67

In: Send back RXF 393 renal growth of O=C(Nc1nc2ccc(OC(F)(F)F)cc2s1)c1ccc(F)cc1 only.
Out: 48.5
